Here's a roundup of pIC50 values tested on 11-beta-hydroxysteroid dehydrogenase type 2 (Homo sapiens, UniProt P80365), taken from various published works.
Sequence (P80365 whole entry): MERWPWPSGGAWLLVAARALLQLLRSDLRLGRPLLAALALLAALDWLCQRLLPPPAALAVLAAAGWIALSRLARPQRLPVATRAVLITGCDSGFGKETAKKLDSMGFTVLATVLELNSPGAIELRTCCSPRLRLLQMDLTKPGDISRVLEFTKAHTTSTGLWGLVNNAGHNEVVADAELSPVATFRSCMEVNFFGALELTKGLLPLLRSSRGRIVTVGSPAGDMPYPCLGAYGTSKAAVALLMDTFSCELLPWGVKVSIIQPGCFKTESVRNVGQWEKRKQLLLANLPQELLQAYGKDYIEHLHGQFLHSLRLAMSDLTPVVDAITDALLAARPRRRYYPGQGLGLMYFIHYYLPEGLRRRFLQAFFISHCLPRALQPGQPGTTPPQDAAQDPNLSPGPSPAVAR
pIC50: −log10 of the molar value.

Reference set (8 entries):
[[record]]
smiles_structure = "O=C(CN1CCN(c2ccc(C(F)(F)F)cn2)CC1)N[C@H]1C2CC3CC1C[C@](O)(C3)C2"
assayed_target = "11-beta-hydroxysteroid dehydrogenase type 2 (Homo sapiens, UniProt P80365)"
val = "< 4.00"

[[record]]
smiles_structure = "Cn1c(-c2ccc(-c3cnccn3)cc2OC(F)F)nnc1C1(c2ccc(Cl)cc2)CCC1"
assayed_target = "11-beta-hydroxysteroid dehydrogenase type 2 (Homo sapiens, UniProt P80365)"
val = "< 5.40"

[[record]]
smiles_structure = "Cn1c(-c2ccc(-c3ccc(Cl)nn3)cc2)nnc1C1(c2ccc(Cl)cc2)CCC1"
assayed_target = "11-beta-hydroxysteroid dehydrogenase type 2 (Homo sapiens, UniProt P80365)"
val = "< 5.40"

[[record]]
smiles_structure = "FC(F)(F)c1ccc(C2(c3nnc4n3CCCCCC4)CCC2)cc1"
assayed_target = "11-beta-hydroxysteroid dehydrogenase type 2 (Homo sapiens, UniProt P80365)"
val = "< 5.40"

[[record]]
smiles_structure = "Cc1ccc(S(=O)(=O)N2CCN(c3ncccc3C(F)(F)F)CC2)cc1"
assayed_target = "11-beta-hydroxysteroid dehydrogenase type 2 (Homo sapiens, UniProt P80365)"
val = "< 5.00"

[[record]]
smiles_structure = "C[C@](O)(c1ccc(C(=O)N(C2CC2)[C@H]2CC[C@@H](c3ccccc3)CC2)cc1)C(F)(F)F"
assayed_target = "11-beta-hydroxysteroid dehydrogenase type 2 (Homo sapiens, UniProt P80365)"
val = "< 5.00"

[[record]]
smiles_structure = "Cn1c(-c2ccc(NC(=O)c3ccno3)cc2)nnc1C1(c2ccc(Cl)cc2)CCC1"
assayed_target = "11-beta-hydroxysteroid dehydrogenase type 2 (Homo sapiens, UniProt P80365)"
val = "< 5.40"

[[record]]
smiles_structure = "Nc1c(Cl)cc(C(=O)N(C2CCCC2)C2CC2)cc1Cl"
assayed_target = "11-beta-hydroxysteroid dehydrogenase type 2 (Homo sapiens, UniProt P80365)"
val = "< 5.00"


Let us move to another entry and its pIC50.
Input line: Reported pIC50 for 11-beta-hydroxysteroid dehydrogenase type 2 (Homo sapiens, UniProt P80365), given C[C@@H]1CN(c2ccc(C(C)(C)O)cc2)CCN1c1cccc(C(=O)N[C@H]2C3CC4CC2C[C@](O)(C4)C3)n1 ?
Output line: < 5.00
